- Test system: NCI-H460 lung
- Assay Explanation: NCI-60 one-dose screen, 48 h (100 = growth as untreated, 0 = no growth, -100 = all killed)
- Experimental Setup: 10 µM unless noted
Compounds without any hit were thinned out: in the full panel of roughly 83,000, 20% have a hit.
Readout: growth (%)
Numbers only here, please. The scale is %.

Query block: Requested read-out growth, target or system NCI-H460 lung, entry "CCN(CC)c1cn(-c2ccc(S(N)(=O)=O)cc2)nn1"
Result block: 106

Query block: Form entry - test system: NCI-H460 lung; read-out: growth; compound: CC1=CC(=O)C2=C(C)CC(OC(=O)CCc3ccccc3)[C@@H]3[C@H](OC(=O)[C@@H]3C)[C@@H]12 (stereo not given in full)
Result block: 103

Query block: Give growth (NCI-H460 lung) of the following compound: "COc1cc(OC)c(/C=C/S(=O)(=O)Cc2ccc(OC)c(NCC(=O)NO)c2)c(OC)c1"
Result block: 10.8

Query block: Provide value of growth for this record tested with NCI-H460 lung: "Cn1ccnc1C(=O)/C=C/c1ccc(CNC(=O)c2ccc(S(F)(F)(F)(F)F)cc2)cc1"
Result block: -18.1

Query block: Give NCI-H460 lung growth for "COc1ccc(/C=C/C(=O)c2cccc(NC(=O)CSc3nc4ccccc4c(=O)n3-c3ccccc3)c2)cc1OC"
Result block: 100

Query block: Could you share what growth was measured for "CC(=O)c1cc(C(=O)N2c3ccccc3Sc3ccccc32)n2ccc3ccccc3c12" , tested on NCI-H460 lung?
Result block: 30

Query block: Under NCI-H460 lung: growth value of "O=C1[C@H]2Cc3c([nH]c4ccccc34)[C@@H](c3ccc(Cl)cc3)N2C(=O)CN1C1CCN(Cc2ccccc2)CC1" ?
Result block: 29.8

Query block: What is its growth for NCI-H460 lung? Entry: "C#CCOc1ccc(/C=N\Nc2nc(-c3ccc(C)cc3)cs2)cc1OC"
Result block: 95.5

Query block: Param readout= growth; system= NCI-H460 lung; entry= "CS(=O)(=O)Nc1cc(-c2ccc3ncc(C#N)c(NCc4ccccc4F)c3c2)cnc1Cl" ; returns value.
Result block: 5.08

Query block: Under NCI-H460 lung: growth value of "CC1(C)CC[C@]23CC[C@]4(C)[C@H](CC[C@@H]5[C@@]6(C)CCCN(CO)C(C)(C)[C@@H]6CC[C@]54C)[C@H]2[C@H]1OC3" ?
Result block: 1.75

Query block: Hello, I am looking for reported growth with NCI-H460 lung for "N#Cc1c(NC(=O)c2cccc(C(F)(F)F)c2F)sc2c1CCC(=O)C2" . Could you help?
Result block: 9.08

Query block: Fill in the recorded growth for this compound, with NCI-H460 lung as test system: "C=C(C=O)[C@@H]1CC[C@]2(CO)CC[C@]3(C)[C@H](CC[C@@H]4[C@@]5(C)CCCNC(C)(C)[C@@H]5CC[C@]43C)[C@@H]12"
Result block: 86

Query block: Look up growth with NCI-H460 lung for this compound: "COc1ccc([C@@H]2[C@@H](O)C(=O)N2c2cc(OC)c(OC)c(OC)c2)cc1F"
Result block: 2.68

Query block: Requested read-out growth, target or system NCI-H460 lung, entry CC(=O)N(C)C1CCc2c(sc(NC(=O)c3ccc(C(C)(C)C)cc3)c2C(N)=O)C1 (stereo not given)
Result block: 10.8

Query block: Find the measured growth: item "COc1cc(-c2nn(C(C)(C)C)cc2-c2ccnc(NCCCNS(=O)(=O)c3cccc(F)c3)n2)ccc1Cl" , target or system NCI-H460 lung.
Result block: 77.2

Query block: I'm curious: which growth was measured for "Cc1cc(C)c2sc(=O)n(Cc3nnc(SCCC(=O)O)o3)c2n1" tested on NCI-H460 lung?
Result block: 105

Query block: GET /values?readout=growth&system=NCI-H460 lung&item= "CN1CCN(c2ccc(/C=N/n3cnc4oc(-c5ccccc5)cc4c3=N)cc2)CC1"
Result block: 99.6

Query block: For NCI-H460 lung, provide growth of "C#Cc1ccc(C(=O)NCc2ccc(/C=C/C(=O)c3nccn3C)cc2)cc1" please.
Result block: -45.4

Query block: Notebook: pull reported growth for NCI-H460 lung, entry c1ccc(C(c2nc3ncncc3[nH]2)N2CSc3nc4ncncc4n3C2)cc1 (stereo not given)
Result block: 83.6

Query block: Notebook entry, NCI-H460 lung assay: growth of "N/C(=N\C(N)=N\c1nc2ccccc2s1)c1ccc2ccccc2c1" = ?
Result block: 68.1

Query block: Request body: readout growth, system NCI-H460 lung, query C[C@@H]1C[C@H]2C(=O)O[C@@H](C)C(NC(=O)[C@H](Cc3cc(F)cc(F)c3)NC(=O)Nc3ccc(C4CC4)cc3F)C(=O)N3CCC[C@H]3C(=O)N3CCCC[C@H]3C(=O)N[C@@H](CO)C(=O)N2C1 (stereo not given in full) . Return the value.
Result block: 14.4

Query block: Checklist item: growth tested on NCI-H460 lung, entry "N#Cc1c(-c2cccs2)cc(-c2cnccn2)nc1SCC(=O)c1ccc(F)cc1" , value?
Result block: 103

Query block: Give the reported growth for "CCOC(=O)c1c(Nc2ccccc2)nn2c(-c3ccc(OC)cc3)ccnc12" (system: NCI-H460 lung).
Result block: 93.5

Query block: What growth appears in the records for this compound with NCI-H460 lung? "O=C(O)c1ccc(-n2cc(CNc3cccc(Cl)c3)c(-c3ccc(F)cc3)n2)cc1"
Result block: 98

Query block: Give recorded growth with NCI-H460 lung for the following compound: O=C(c1ccc(Cl)cc1)C1[C@H](c2ccc(Cl)cc2)[C@@H](c2ccccc2)NC12C(=O)Nc1ccccc12 (stereo not given in full)
Result block: 32.7

Query block: Under NCI-H460 lung: growth value of "CN1CCN(Cc2ccc(NC(=O)c3cncc(C#Cc4cnn5cccnc45)c3)cc2C(F)(F)F)CC1" ?
Result block: 3.16

Query block: Lab note: need growth with NCI-H460 lung for entry "COc1ccc(S(=O)(=O)NCCCNc2nccc(-c3[nH]c(-c4ccccc4)nc3-c3ccc(Cl)c(O)c3)n2)cc1" , please look it up.
Result block: 85.6

Query block: Report growth for "CCn1c(SCC(=O)Nc2cccc(C(=O)/C=C/c3cc(OC)c(OC)c(OC)c3)c2)nc2ccccc2c1=O" tested on NCI-H460 lung.
Result block: 2.34

Query block: Enter reported growth observed with NCI-H460 lung for "COc1cc(OC)c(S(N)(=O)=O)cc1C(=O)/C=C/c1ccc(Cl)cc1"
Result block: -11.2

Query block: Provide the documented growth with NCI-H460 lung as the system for "NS(=O)(=O)c1ccc(Nc2nc(N/N=C/c3c[nH]c4ccccc34)nc(Nc3ccccc3)n2)cc1"
Result block: 41.2

Query block: Requested read-out growth, target or system NCI-H460 lung, entry "NC(N)=Nc1ccc(Oc2cccc(Nc3ccc(Br)c(C(F)(F)F)c3)c2)cc1"
Result block: -66.9

Query block: Observed growth on NCI-H460 lung for "CC[C@H](CO)Nc1ccc2ncc(C#Cc3cncc(C(=O)Nc4ccc(CN5CCN(C)CC5)c(C(F)(F)F)c4)c3)n2n1" , please.
Result block: -93

Query block: Can you look up growth on NCI-H460 lung for "NC(=O)c1cccc(C#CCNC[C@H]2C[C@@H](n3ccc4c(Cl)ncnc43)[C@H](O)[C@@H]2O)c1" ?
Result block: 113

Query block: GET /values?readout=growth&system=NCI-H460 lung&item= "Cn1cc(-c2nnc(N)nc2-c2c[nH]c3ccc(F)cc23)c2cc(F)ccc21"
Result block: 30.9

Query block: Which measured growth belongs to "NC(N)=Nc1ccc(Oc2ccc(Nc3ccc(Cl)c(C(F)(F)F)c3)cc2)cc1" , tested on NCI-H460 lung?
Result block: -0.702
